tested on: 786-O-Hif-Luc cells (luciferase gene driven by multiple HIF responsive elements); experiment: Luciferase Assay (HIF reporter); conditions: 24 h, read-out: Mean Luciferase EC50 (nM)
The reader will find reported EC50 values listed item by item below.

{"compound": "O=S(=O)(c1ccc(Oc2cc(F)cc(Cl)c2)c(C(F)F)c1)C(F)(F)F", "EC50": "250 to 1000 nM"}

Now for a further compound.
Ask: Quick one: EC50 of CS(=O)(=O)c1ccc(Oc2cc(F)cc(C#N)c2)c2c1[C@H](O)[C@H](F)[C@@H]2F ?
Result: < 50 nM

====

molecular target: HIF-2α HIS TAG-PASB Domain (Homo sapiens, UniProt Q99814)
Sequence (Q99814 240-350 limits assumed): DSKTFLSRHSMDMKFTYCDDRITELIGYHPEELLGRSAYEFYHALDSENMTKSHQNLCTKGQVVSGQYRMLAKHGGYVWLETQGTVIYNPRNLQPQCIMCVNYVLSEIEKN
pIC50: −log10 of the molar value.
propertyName: pIC50

{"smilesRepresentation": "O=S(=O)(c1ccc(O[C@H]2C[C@H](O)C2)c2c1[C@H](O)C(F)(F)C2)C(F)(F)F", "measurementTarget": "HIF-2α HIS TAG-PASB Domain (Homo sapiens, UniProt Q99814)", "pIC50": "6.00 to 6.60"}

Could you now consider this next molecule?
Ask: # pIC50 lookup, item FC(F)COc1ccc(C(F)(F)F)c2c1C[C@H](F)[C@H]2F
Result: 6.60 to 7.30

FYI, the data here is from patent US10512626B2.
